Molecular target: mouse ADAMTS7 (Mus musculus, UniProt Q68SA9)
Construct: Full-length mouse Adamts7 1-1857 (Uniprot Q68SA9, WT or E373Q catalytic mutant); expressed in transfected cells; host or cells: Human Coronary Artery Smooth Muscle Cells (HCA-SMC, Lonza), adenovirus 50 MOI
Sequence (Q68SA9 221-1657): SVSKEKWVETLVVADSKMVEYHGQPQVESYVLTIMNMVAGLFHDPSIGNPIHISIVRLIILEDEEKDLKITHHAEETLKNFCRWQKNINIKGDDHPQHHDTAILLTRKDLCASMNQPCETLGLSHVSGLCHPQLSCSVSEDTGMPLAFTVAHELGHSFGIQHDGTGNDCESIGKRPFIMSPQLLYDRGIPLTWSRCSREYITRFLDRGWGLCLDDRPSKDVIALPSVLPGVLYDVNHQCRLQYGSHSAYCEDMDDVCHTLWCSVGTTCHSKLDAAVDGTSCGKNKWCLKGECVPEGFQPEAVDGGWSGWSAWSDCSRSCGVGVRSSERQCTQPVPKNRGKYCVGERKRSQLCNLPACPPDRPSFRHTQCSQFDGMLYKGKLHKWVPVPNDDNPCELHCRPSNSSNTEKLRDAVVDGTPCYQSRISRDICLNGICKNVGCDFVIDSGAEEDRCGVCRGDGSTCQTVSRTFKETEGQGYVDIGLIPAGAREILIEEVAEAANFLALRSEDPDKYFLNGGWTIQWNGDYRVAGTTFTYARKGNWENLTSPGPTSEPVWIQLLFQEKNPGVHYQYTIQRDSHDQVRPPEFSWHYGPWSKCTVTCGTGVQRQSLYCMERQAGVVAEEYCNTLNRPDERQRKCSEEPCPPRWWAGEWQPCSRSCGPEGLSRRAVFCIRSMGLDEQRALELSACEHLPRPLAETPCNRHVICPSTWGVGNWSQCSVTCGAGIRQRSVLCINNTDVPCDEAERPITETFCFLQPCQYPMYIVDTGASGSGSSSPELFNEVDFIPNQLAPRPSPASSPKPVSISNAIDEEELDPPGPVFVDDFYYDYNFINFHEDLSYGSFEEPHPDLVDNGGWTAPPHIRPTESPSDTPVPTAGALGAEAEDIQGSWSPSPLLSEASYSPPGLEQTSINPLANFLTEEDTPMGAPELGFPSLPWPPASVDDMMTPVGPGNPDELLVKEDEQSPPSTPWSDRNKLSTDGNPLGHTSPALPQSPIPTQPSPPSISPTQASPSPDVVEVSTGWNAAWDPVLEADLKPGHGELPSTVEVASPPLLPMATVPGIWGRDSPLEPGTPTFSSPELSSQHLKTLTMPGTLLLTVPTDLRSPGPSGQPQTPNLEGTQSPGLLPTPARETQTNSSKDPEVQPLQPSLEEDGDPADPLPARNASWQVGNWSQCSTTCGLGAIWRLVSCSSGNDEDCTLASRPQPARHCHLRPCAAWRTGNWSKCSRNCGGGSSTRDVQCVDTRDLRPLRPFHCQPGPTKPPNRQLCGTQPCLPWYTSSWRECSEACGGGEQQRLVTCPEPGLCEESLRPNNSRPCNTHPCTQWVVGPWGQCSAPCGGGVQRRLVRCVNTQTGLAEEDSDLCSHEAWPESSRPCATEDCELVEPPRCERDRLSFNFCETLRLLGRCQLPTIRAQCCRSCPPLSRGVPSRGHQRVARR
Assay: TMT10 TAILS N-terminomics, SMC1 experiment (Ad-mADAMTS7 WT vs EQ vs Luc, technical replicates, trypsin digest)
Type: cell-based
Settings: TAILS neo-N-terminal peptide abundance; log fold change, Ad-mADAMTS7 WT over Luc
test_readout: logFC.mWT.over.Lux

Some substances with recorded logFC.mWT.over.Lux:
substance: NID2_291 (HSSVPLGR; listed as Homo sapiens)
measurement: 3.96

substance: EHBP1L1_298 (TAPTPAPR; listed as Homo sapiens)
measurement: 1.01

substance: CLEC11A_50 (HLQEALGLPAGR; listed as Homo sapiens)
measurement: 1.08

a: MAP1B_1065 (LTTPTKQLGAQSPGR; listed as Homo sapiens)
b: GSN_35 (SQAGAPQGR; listed as Homo sapiens)
logFC.mWT.over.Lux comparison. Which is larger, a or b ? Give the chosen item's label as your response.
b

----------
Target: mouse ADAMTS7 (Mus musculus, UniProt Q68SA9, E373Q)
Construct: Full-length mouse Adamts7 1-1857 (Uniprot Q68SA9, WT or E373Q catalytic mutant); expressed in transfected cells; host or cells: Human Coronary Artery Smooth Muscle Cells (HCA-SMC, Lonza), adenovirus 50 MOI
Sequence (Q68SA9 221-1657 E373Q): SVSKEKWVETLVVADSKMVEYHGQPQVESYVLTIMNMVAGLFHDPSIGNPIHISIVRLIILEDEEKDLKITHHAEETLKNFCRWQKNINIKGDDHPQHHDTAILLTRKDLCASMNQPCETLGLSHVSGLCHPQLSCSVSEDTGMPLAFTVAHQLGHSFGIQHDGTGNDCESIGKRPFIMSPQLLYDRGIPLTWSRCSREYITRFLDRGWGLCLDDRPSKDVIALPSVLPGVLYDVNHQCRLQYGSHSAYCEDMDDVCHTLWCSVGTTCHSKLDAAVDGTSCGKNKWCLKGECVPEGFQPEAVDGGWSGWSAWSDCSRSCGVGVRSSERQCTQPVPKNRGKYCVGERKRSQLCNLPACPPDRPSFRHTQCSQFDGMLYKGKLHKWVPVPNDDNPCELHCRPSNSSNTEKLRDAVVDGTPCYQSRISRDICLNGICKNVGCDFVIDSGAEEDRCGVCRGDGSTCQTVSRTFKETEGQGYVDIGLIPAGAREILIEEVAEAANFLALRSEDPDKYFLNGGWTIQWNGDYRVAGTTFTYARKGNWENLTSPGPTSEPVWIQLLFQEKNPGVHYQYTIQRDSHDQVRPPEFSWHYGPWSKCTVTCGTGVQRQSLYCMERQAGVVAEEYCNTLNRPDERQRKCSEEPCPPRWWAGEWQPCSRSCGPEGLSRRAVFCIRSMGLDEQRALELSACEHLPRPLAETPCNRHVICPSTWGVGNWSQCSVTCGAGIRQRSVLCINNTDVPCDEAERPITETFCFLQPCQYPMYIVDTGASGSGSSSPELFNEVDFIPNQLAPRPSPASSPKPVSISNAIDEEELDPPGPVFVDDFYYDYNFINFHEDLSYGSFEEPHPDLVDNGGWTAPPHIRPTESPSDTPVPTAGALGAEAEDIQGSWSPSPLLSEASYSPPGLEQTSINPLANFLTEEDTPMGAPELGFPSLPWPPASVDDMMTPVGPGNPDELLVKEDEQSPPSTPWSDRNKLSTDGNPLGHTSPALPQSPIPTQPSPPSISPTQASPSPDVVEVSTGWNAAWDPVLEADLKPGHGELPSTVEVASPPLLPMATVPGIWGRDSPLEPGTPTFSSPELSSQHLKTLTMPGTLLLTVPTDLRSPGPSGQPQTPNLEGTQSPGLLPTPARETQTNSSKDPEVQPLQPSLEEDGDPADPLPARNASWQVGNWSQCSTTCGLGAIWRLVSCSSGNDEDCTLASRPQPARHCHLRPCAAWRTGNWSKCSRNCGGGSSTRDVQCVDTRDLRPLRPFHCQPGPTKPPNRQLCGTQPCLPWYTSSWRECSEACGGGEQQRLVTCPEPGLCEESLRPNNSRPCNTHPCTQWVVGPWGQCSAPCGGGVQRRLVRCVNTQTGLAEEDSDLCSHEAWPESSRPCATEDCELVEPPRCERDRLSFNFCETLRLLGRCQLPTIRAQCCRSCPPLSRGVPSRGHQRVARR
Experiment: TMT10 TAILS N-terminomics, SMC1 experiment (Ad-mADAMTS7 WT vs EQ vs Luc, technical replicates, trypsin digest)
Assay type: cell-based
Details: TAILS neo-N-terminal peptide abundance; log fold change, Ad-mADAMTS7 EQ over Luc
test_readout: logFC.mEQ.over.Luc

substance: LOX_80 (ANASAQQPR; listed as Homo sapiens)
measurement: −0.16
--
substance: POLR3G_88 (LFCSHWSHIPGFK; listed as Homo sapiens)
measurement: 0.00
--
substance: LTBP2_760 (SSGALPGPAER; listed as Homo sapiens)
measurement: 0.29
--
substance: MAP4_815 (AVASTGPSSR; listed as Homo sapiens)
measurement: 0.10
--
substance: ACTB_105 (LTEAPLNPKANR; listed as Homo sapiens)
measurement: −0.12

a: LOX_124 (WFQAGYSTSR; listed as Homo sapiens)
b: PPP1R18_295 (LSETLTR; listed as Homo sapiens)
c: MGAT4B_28 (LSGQKGDVVDVYQR; listed as Homo sapiens)
# desc sort on logFC.mEQ.over.Luc across 3 substances Answer format: the labels, ordered as requested.
a, b, c

A: POSTN_754 (IITGPEIKYTR; listed as Homo sapiens)
B: COL1A2_630 (VGTAGPSGPSGLPGER; listed as Homo sapiens)
Please compare: A and B . Report which one has the smaller logFC.mEQ.over.Luc value. Lab log: write the label of the selected item as the result.
B
(B: −0.27, A: 0.10)
